- Experimental System: Calcitonin gene-related peptide type 1 receptor (Rattus norvegicus, UniProt Q63118)
- Sequence (Q63118 whole entry): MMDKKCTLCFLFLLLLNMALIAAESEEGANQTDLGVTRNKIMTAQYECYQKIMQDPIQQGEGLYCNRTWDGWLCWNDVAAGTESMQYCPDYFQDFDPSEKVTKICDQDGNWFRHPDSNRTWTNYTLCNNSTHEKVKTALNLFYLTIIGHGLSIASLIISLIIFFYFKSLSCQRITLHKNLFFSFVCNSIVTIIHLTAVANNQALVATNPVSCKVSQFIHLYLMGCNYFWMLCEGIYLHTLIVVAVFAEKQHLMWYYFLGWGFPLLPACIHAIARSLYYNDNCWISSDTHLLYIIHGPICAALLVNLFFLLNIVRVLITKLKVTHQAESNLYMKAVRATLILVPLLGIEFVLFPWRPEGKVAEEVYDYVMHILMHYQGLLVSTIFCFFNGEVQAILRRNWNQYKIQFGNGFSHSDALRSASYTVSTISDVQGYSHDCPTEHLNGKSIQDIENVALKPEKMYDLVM
- Protocol Details: Displacement of [125I]CGRP from CGRP receptor in rat brain membrane after 3 hrs
- Format: cell membranes
This listing pairs molecules with measured Ki.

| Mol Smiles | Ki [nM] |
| --- | --- |
| O=C(CN1C(=O)C2(CCCC2)NC[C@H]1c1cc(F)cc(F)c1)Nc1ccc2c(c1)C[C@@]1(C2)C(=O)Nc2ncccc21 | 10 |
| C[C@@]1(c2cc(F)cc(F)c2)CNC2(CCCC2)C(=O)N1CC(=O)Nc1ccc2c(c1)C[C@@]1(C2)C(=O)Nc2ncccc21 | 3.4 |
| O=C(CN1C(=O)C2(CCCC2)NC[C@H]1c1cc(F)cc(F)c1)Nc1cnc2c(c1)C[C@@]1(C2)C(=O)Nc2ncccc21 | 38 |
